Test system: EKVX NSCLC
EXPERIMENT DESCRIPTION: NCI tumour cell line growth inhibition, 48 h
READOUT KIND: TGI (µM)

[
  {
    "COMPOUND": "N#Cc1cc(S(=O)(=O)Nc2nnc(-c3ccccc3)c(-c3ccccc3)n2)c(SCc2ccccc2)cc1Cl",
    "UNIT INFO": "µM",
    "RELATION": "=",
    "MEASURED VALUE": 48.7
  },
  {
    "COMPOUND": "CC(=O)OCC(C)(COC(C)=O)N1C(=O)C2C3c4ccccc4C(c4ccccc43)C2C1=O (centres undefined)",
    "UNIT INFO": "µM",
    "RELATION": ">",
    "MEASURED VALUE": 100
  },
  {
    "COMPOUND": "CC(=O)O[C@@]12CO[C@@H]1C[C@@H](O)[C@@]1(C)C(=O)[C@H](O)C3=C(C)[C@@H](OC(=O)[C@H](O)[C@@H](NC(=O)c4ccccc4)c4ccccc4)C[C@@](O)([C@@H](OC(=O)c4ccccc4)C12)C3(C)C (some centres undefined)",
    "UNIT INFO": "µM",
    "RELATION": ">",
    "MEASURED VALUE": 100
  },
  {
    "COMPOUND": "CCN(CC)C1C(=O)NC1C#Cc1ccccc1 (centres undefined)",
    "UNIT INFO": "µM",
    "RELATION": ">",
    "MEASURED VALUE": 100
  },
  {
    "COMPOUND": "CCOC(=O)c1c(C)n([O-])c2cc(Cl)c(Cl)cc2[n+]1=O",
    "UNIT INFO": "µM",
    "RELATION": "=",
    "MEASURED VALUE": 74.4
  },
  {
    "COMPOUND": "O=C(/C=C/C12c3ccccc3C(c3ccccc31)C1C(=O)NC(=O)C12)c1ccc(F)cc1 (centres undefined)",
    "UNIT INFO": "µM",
    "RELATION": "=",
    "MEASURED VALUE": 4.45
  },
  {
    "COMPOUND": "C=C1C(=O)OC2C3C(=C)[C@@H](OC(C)=O)CC3C(C)=CC(OC(=O)C(C)(OC(C)=O)C(C)OC(C)=O)[C@@H]12 (some centres undefined)",
    "UNIT INFO": "µM",
    "RELATION": "=",
    "MEASURED VALUE": 30.9
  },
  {
    "COMPOUND": "OC(c1ccc2c(c1)OCO2)c1ccc2c(c1)OCO2",
    "UNIT INFO": "µM",
    "RELATION": ">",
    "MEASURED VALUE": 100
  },
  {
    "COMPOUND": "COc1ccc(N=NC(=Nc2ccc(Cl)cc2)c2ccc(N(CCC#N)CCC#N)cc2)cc1",
    "UNIT INFO": "µM",
    "RELATION": ">",
    "MEASURED VALUE": 100
  }
]

###

Tested on: MALME-3M melanoma
EXPERIMENT DESCRIPTION: NCI tumour cell line growth inhibition, 48 h
This listing pairs compounds with measured TGI.
READOUT KIND: TGI

[
  {
    "COMPOUND": "CC(CN(C)C)Oc1ccccc1NC1=C(Cl)C(=O)C(Nc2ccccc2OC(C)CN(C)C)=C(Cl)C1=O (stereo not given)",
    "MEASURED VALUE": "1.38 µM"
  },
  {
    "COMPOUND": "CC1=C(C(=O)Nc2cc(Cl)c3[nH]ncc3c2)C(c2ccc(C(F)(F)F)cc2)CC(=O)N1 (stereo not given)",
    "MEASURED VALUE": "> 25 µM"
  },
  {
    "COMPOUND": "O=C1C2CCN(CC2)C1(CO)CO",
    "MEASURED VALUE": "36.6 µM"
  },
  {
    "COMPOUND": "N#CC(C#N)N=Nc1ccc(-c2nc3ccccc3o2)cc1",
    "MEASURED VALUE": "> 100 µM"
  },
  {
    "COMPOUND": "CC1(C)N=C(N)N=C(N)N1c1cccc(C(=O)Nc2ccc(S(=O)(=O)F)cc2)c1",
    "MEASURED VALUE": "> 100 µM"
  },
  {
    "COMPOUND": "O=C1c2ccccc2C(=O)C1C(c1ccc(F)cc1)C1C(=O)c2ccccc2C1=O",
    "MEASURED VALUE": "> 100 µM"
  },
  {
    "COMPOUND": "CCN(CCCl)c1cc(CN(C)C)cc(NC(=O)C23CCC(C(=O)Nc4cc(CN(C)C)cc(N(CC)CCCl)c4)(CC2)CC3)c1",
    "MEASURED VALUE": "3.21 µM"
  },
  {
    "COMPOUND": "CN1C(=O)C(O)CC1c1ccccc1C(F)(F)F (stereo not given)",
    "MEASURED VALUE": "> 100 µM"
  },
  {
    "COMPOUND": "CC1CN(c2cc3c(cc2F)c(=O)c(C(=O)O)cn3-c2ccc(F)cn2)CC(C)N1 (stereo not given)",
    "MEASURED VALUE": "> 100 µM"
  },
  {
    "COMPOUND": "O=C1NC(N2CCCCC2)=N/C1=C\\c1ccc(Cl)cc1",
    "MEASURED VALUE": "> 100 µM"
  }
]
